protocol-summary: viability loss with induced miR-34 in A549 – imaging, A549 dox-inducible miR-34, nuclei and caspase counts, primary screen (AID 1347080)
conditions-used: A549 miR-34 inducible, Hoechst nuclei count, 48 h; cell number ratio, induced over uninduced
Active and inactive are the calls of the source.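 How the source made its calls: active means compounds whose cell count with miR-34 switched on is under 0.7 times the count with it off; inactive means the rest.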
// allowed return values: TRUE for active, FALSE for inactive

Solved entries:
1. COC1O[C@H]2O[C@@]3(C)CC[C@H]4[C@@H](C)CC[C@@H]([C@H]1C)[C@@]24OO3 (stereo partly drawn) | FALSE
2. Nc1ncnc2c1ncn2C1CCCC1 | FALSE
3. C=CC(C)(O)CCC1[C@@]2(C)CCCC(C)(C)C2CC[C@@]1(C)O (stereo partly drawn) | FALSE

Recorded test outcome, item NCCCNc1ccccc1[N+](=O)[O-] FALSE

Recorded test outcome, item CC1OC(O)C(O)C(O)C1O (stereo not drawn) FALSE

Recorded test outcome, item Cc1cc(Nc2nc(NC(C)c3ccc(F)cc3)c(C#N)cc2F)n[nH]1 (stereo not drawn) FALSE

Recorded test outcome, item CCOc1nc2cccc(C(=O)OCc3oc(=O)oc3C)c2n1Cc1ccc(-c2ccccc2-c2noc(=O)[nH]2)cc1 FALSE

Recorded test outcome, item Nc1nc(Nc2cccc(Cl)c2)sc1C(=O)c1ccc(F)cc1 FALSE

Recorded test outcome, item CCOC(=O)c1ccc(NC2CCCCC2)c(N)c1 FALSE

* * *

protocol-summary: drug combination growth inhibition, ovarian cancer – cell-based, oncology-focused library, rucaparib conditional, profiling panel (AID 1508598)
conditions-used: patient-derived ovarian cancer cells, CellTiter-Glo viability, 144 h; at 0.0195 µM; OCI-C5x cells; without rucaparib; stronger effect = lower value
# reported viability; entries follow
Field: numeric (%). Do not append units.

1. COc1ccc(C2=N[C@@H](c3ccc(Cl)cc3)[C@H](c3ccc(Cl)cc3)N2C(=O)N2CCNC(=O)C2)c(OC(C)C)c1 | 100
2. CN(C)CCOc1ccc(-c2nc(-c3ccc4c(c3)CCC4=NO)c(-c3ccncc3)[nH]2)cc1 | 138
3. CC(C)NCCCn1c(Sc2cc3c(cc2I)OCO3)nc2c(N)ncnc21 | 122
4. CC(C)(C)C(=O)Nc1ccc2c(c1)C(=O)C(=O)c1ccccc1-2 | 112
5. CO[C@H]1C[C@H]2CC[C@@H](C)[C@@](O)(O2)C(=O)C(=O)N2CCCC[C@H]2C(=O)O[C@H]([C@H](C)C[C@@H]2CC[C@H](OP(C)(C)=O)[C@H](OC)C2)CC(=O)[C@H](C)/C=C(\C)[C@@H](O)[C@@H](OC)C(=O)[C@H](C)C[C@H](C)/C=C/C=C/C=C/1C | 93.1
6. CCC1=CC2CN(C1)Cc1c([nH]c3ccccc13)[C@@](C(=O)OC)(c1cc3c(cc1OC)N(C)[C@H]1[C@@](O)(C(=O)OC)[C@H](OC(C)=O)[C@]4(CC)C=CCN5CC[C@@]31[C@H]54)C2 (some centres not stated) | 33.7

Switching to the query record.
Item CCCc1ccc(OCC(=O)N(Cc2nc(-c3cccnc3)no2)C(C)C)cc1 has what recorded viability? 110

* * *

protocol-summary: viability loss with induced miR-34 in A549 – imaging, A549 dox-inducible miR-34, nuclei and caspase counts, primary screen (AID 1347080)
conditions-used: A549 miR-34 inducible, Hoechst nuclei count, 48 h; measured here: relative caspase fold change +Dox/-Dox
observed-property: fold change
Answer with a number only.

Reference set (4 entries):
1. COc1cc(N=C(N)N=C(N)N)cc(OC)c1 | 0.269
2. CC1O[C@@H](OC2C(Oc3cc(O)c(C(=O)CCc4ccc(O)cc4)c(O)c3)OC(CO)C(O)C2O)C(O)C(O)C1O (stereo not given in full) | 0.587
3. CCCN1CC(CSC)C[C@@H]2c3cccc4[nH]cc(c34)C[C@H]21 (stereo not given in full) | 0.485
4. C=CC1=C(C(=O)O)N2C(=O)C(NC(=O)C(=NO)c3csc(N)n3)C2SC1 (stereo not given) | 1.91

Switching to the query record.
Item Cc1ccc(NC(=O)CCCCCC(=O)Nc2ccccc2N)cc1 has what recorded fold change? 1.02
